The entries that follow carry pKi values tested on serotonin receptors from calf hippocampus (Bos taurus, UniProt F6Q2H9), drawn from several published reports.
// scale note: pKi = -log10(conc_M); give the bare number

Compound | Assayed Target | Reported Endpoint | Test Value
CC1(C)Cc2ccc3c(c2O1)OC(CNCCCCN1C(=O)c2ccccc2S1(=O)=O)CC3 (single isomer, unassigned) | serotonin receptors from calf hippocampus (Bos taurus, UniProt F6Q2H9) | pKi | 9.05
CC(C)Oc1cccc2c1OC(CNCCCCN1C(=O)c3ccccc3S1(=O)=O)CC2 (single isomer, unassigned) | serotonin receptors from calf hippocampus (Bos taurus, UniProt F6Q2H9) | pKi | 9.30
O=c1[nH]c2ccccc2n1C1=CCN(CC2CCc3ccccc3O2)CC1 (stereo not drawn) | serotonin receptors from calf hippocampus (Bos taurus, UniProt F6Q2H9) | pKi | 8.82
c1ccc2c(c1)CCC(CNCC13CC4CC(CC(C4)C1)C3)O2 (stereo not drawn) | serotonin receptors from calf hippocampus (Bos taurus, UniProt F6Q2H9) | pKi | 8.38
COc1cccc2c1OC(CN1CC=C(n3c(=O)[nH]c4ccccc43)CC1)CC2 (stereo not drawn) | serotonin receptors from calf hippocampus (Bos taurus, UniProt F6Q2H9) | pKi | 8.85

Challenge: Enter reported pKi observed with serotonin receptors from calf hippocampus (Bos taurus, UniProt F6Q2H9) for CN(CC1CCN(Cc2ccccc2)CC1)CC1CCc2ccccc2O1 (stereo not drawn)
Response given: 7.55
